Target: His-hMAGL (recombinant polyhistidine tagged human MAGL protein) (Homo sapiens, UniProt Q99685)
Construct: made in house; host or cells: E. coli BL21(DE3)
Sequence (Q99685 1-303): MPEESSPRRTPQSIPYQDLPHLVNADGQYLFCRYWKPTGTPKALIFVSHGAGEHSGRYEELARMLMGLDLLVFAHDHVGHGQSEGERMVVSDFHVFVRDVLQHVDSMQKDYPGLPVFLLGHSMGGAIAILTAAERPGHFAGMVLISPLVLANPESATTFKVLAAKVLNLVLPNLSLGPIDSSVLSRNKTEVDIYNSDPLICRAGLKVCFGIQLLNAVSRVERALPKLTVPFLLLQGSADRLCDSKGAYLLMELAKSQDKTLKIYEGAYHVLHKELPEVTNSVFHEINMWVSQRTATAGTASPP
Assay: Measurement of MAGL inhibitory activity (arachidonic acid production from 2-arachidonylglycerol, RapidFire-mass spectrometry)
Assay type: biochemical
Settings: MAGL inhibitory rate, test compound 10 μM, 60 min preincubation, 2-arachidonylglycerol substrate
Measurement Type: inhibition at 10 µM (%)

# Compound, inhibition at 10 µM / %
rows = [
    ("O=C1CCC2(CN(C(=O)c3sc4cc(OC(F)(F)F)cc(F)c4c3Cl)C2)N1", 99),
    ("Cc1c(C(=O)N2CC3(CCC(=O)N3)C2)sc2cc(C(F)(F)F)ccc12", 99),
    ("O=C1CCC2(CN(C(=O)c3ccc(-c4cc(OC(F)(F)F)ccc4F)cc3)C2)N1", 97),
    ("O=C1NC2(CO1)CN(C(=O)c1sc3cc(OC(F)F)ccc3c1Cl)C2", 101),
    ("O=C1CCC2(CN(C(=O)c3ccc(-c4ccccc4)s3)C2)N1", 85),
    ("O=C1CCC2(CN(C(=O)c3sc4cc(-c5ccc(OC(F)(F)F)cc5)ccc4c3Cl)C2)N1", 94),
    ("O=C1CCC2(CN(C(=O)c3ccc(-c4c(F)cc(F)cc4F)cc3)C2)N1", 88),
    ("O=C1CCC2(CN(C(=O)c3sc4ccc(OC(F)(F)F)cc4c3Cl)C2)N1", 99),
    ("O=C1NC2(CO1)CN(C(=O)[C@H]1C[C@H](OCc3ccc(Cl)cc3Cl)C1)C2", 100),
    ("O=C1NC2(CO1)CN(C(=O)c1sc3ccc(OC(F)(F)F)cc3c1C(F)F)C2", 101),
    ("O=C1NC2(CO1)CN(C(=O)c1sc3cc(OC(F)(F)F)c(F)cc3c1Cl)C2", 101),
    ("CC(C)c1ccccc1-c1ccc2c(Cl)c(C(=O)N3CC4(CCC(=O)N4)C3)sc2c1", 100),
    ("O=C1NC2(CCO1)CN(C(=O)c1sc3cc(OC(F)(F)F)ccc3c1Cl)C2", 99),
    ("O=C1CCC2(CN(C(=O)c3sc4cc(OC(F)(F)F)ccc4c3C(F)F)C2)N1", 97),
    ("O=C1CCC2(CN(C(=O)c3ccc(-c4ccc5c(c4)CCC5)cc3)C2)N1", 99),
    ("O=C1CCC2(CN(C(=O)[C@H]3CC[C@H](c4ccc(O)cc4)CC3)C2)N1", 92),
    ("O=C1CCC2(CN(C(=O)c3sc(-c4ccc(C5(C(F)(F)F)CC5)cc4)cc3Cl)C2)N1", 100),
    ("O=C1CCC2(CN(C(=O)c3ccc(-c4cc(Cl)ccc4Cl)cc3)C2)N1", 98),
    ("O=C1CCC2(CN(C(=O)N3CC(COc4ccc(F)cc4Cl)C3)C2)N1", 99),
    ("O=C1NC2(CO1)CN(C(=O)c1sc3cc(-c4ccccc4F)ccc3c1-c1ccccc1F)C2", 100),
    ("Cc1cc(-c2ccc3c(Cl)c(C(=O)N4CC5(CCC(=O)N5)C4)sc3c2)c(C)s1", 101),
    ("O=C1CCC2(CN(C(=O)c3sc4cc(-c5ccc(Cl)cc5)ccc4c3Cl)C2)N1", 97),
    ("Cc1ccc(C)c(-c2ccc(C(=O)N3CC4(CCC(=O)N4)C3)cc2)c1", 92),
    ("Cc1ccc(F)cc1-c1ccc2c(Cl)c(C(=O)N3CC4(CCC(=O)N4)C3)sc2c1", 101),
    ("O=C1NC2(CO1)CN(C(=O)c1sc3c(C(F)(F)F)cccc3c1OC(F)F)C2", 100),
    ("O=C1CCC2(CN(C(=O)c3sc4cc(-c5ccc(C6CC6)cc5)ccc4c3Cl)C2)N1", 97),
    ("O=C1CCC2(CN(C(=O)N3CCC(F)(Cc4ccc(F)cc4)CC3)C2)N1", 96),
    ("O=C1COCC2(CCN(C(=O)c3sc4cc(OC(F)(F)F)ccc4c3Cl)C2)N1 (stereo not shown)", 100),
    ("Cc1c(F)ccc(F)c1-c1ccc(C(=O)N2CC3(CCC(=O)N3)C2)cc1", 90),
    ("O=C1CCC2(CN(C(=O)c3ccc(-c4coc5ccccc45)cc3)C2)N1", 98),
    ("O=C1CCC2(CN(C(=O)c3sc4cc(OC(F)F)ccc4c3Cl)C2)N1", 100),
    ("O=C1NC2(CCN(C(=O)c3sc4cc(Cl)cc(Cl)c4c3Cl)C2)CO1 (stereo not shown)", 80),
    ("Cc1cc(-c2ccccc2)sc1C(=O)N1CC2(CCC(=O)N2)C1", 89),
    ("O=C1CCC2(CN(C(=O)N3CCC(Cc4ccccc4Cl)CC3)C2)N1", 99),
]
